Where do the numbers come from? From PubChem BioAssay (NCI).

# Test system: K-562 leukemia
# assayProtocol: NCI-60 one-dose screen, 48 h (100 = growth as untreated, 0 = no growth, -100 = all killed)
# cond: 10 µM
About 83,000 compounds went through this panel and 20% of them were active in at least one assay; those are over-represented in the sample as a whole.

- molecule: "O=C(Nc1cccc(-n2cc(-c3ccncc3)c(-c3ccc(O)c(Cl)c3)n2)c1)c1cc(C(F)(F)F)cc(C(F)(F)F)c1"
  growth, %: 35.9
- molecule: "CSc1nc(=O)n(Cc2ccc(F)cc2)c(=O)n1Cc1ccc(C)cc1"
  growth, %: 91.1
- molecule: "O=C(N/N=C/c1cc2ccccc2c2ccccc12)c1cc(O)c(O)c(O)c1"
  growth, %: 20.2
- molecule: "CCCCCCCCCCCC[n+]1ccc(C(N)=O)cc1"
  growth, %: 7.8
- molecule: "COc1ccccc1/C=C/C(=O)c1ccccc1"
  growth, %: 6.19
- molecule: "O=C1OCC2=C1C(c1cccc(Cl)c1)c1cc3c(cc1N2CCO)OCCO3 (configuration not stated)"
  growth, %: 17.5
- molecule: "Cc1cc(N(CCCNc2ccnc3cc(Cl)ccc23)Cc2cccs2)nc(Cl)n1"
  growth, %: 0.837

* * *

# Tested on: OVCAR-4 ovarian
# assayProtocol: NCI-60 one-dose screen, 48 h (100 = growth as untreated, 0 = no growth, -100 = all killed)
# cond: 10 µM
# Description: Growth inhibition of the OVCAR-4 human tumor cell line is measured as a screen for anti-cancer activity. Cells are grown in 96 well plates and exposed to the test compound for 48 hours. Compounds are tested at a single concentration, which is 10^-5 M for most compounds. The reported endpoint is percent growth (GI% or GIPRCNT), where numbers from 0 - 100% represent growth inhibition, and numbers from -100% - 0 represent cell death. For example, a value of 40 represents 60% growth inhibition. […]
Compounds without any hit were thinned out: in the full panel of roughly 83,000, 20% have a hit.
List of growth values.

- compound: "Nc1c(C(=O)Nc2cccc3ccccc23)sc2nc3c(cc12)C(=O)CCC3"
  readingUnit: "%"
  growth: 47.7
- compound: "CCCN(CCC)CCC(O)c1cc2c(c3ccccc13)CCCC2 (stereo unspecified)"
  readingUnit: "%"
  growth: 103
- compound: "O=C(CCCCC[P+](c1ccccc1)(c1ccccc1)c1ccccc1)NC(COC(=O)C(Cl)Cl)(COC(=O)C(Cl)Cl)COC(=O)C(Cl)Cl"
  readingUnit: "%"
  growth: 100
- compound: "CCOCC(=O)C(C#N)c1ccc(Cl)c(Cl)c1 (stereo unspecified)"
  readingUnit: "%"
  growth: 91.3
- compound: "COc1cccc(C2C3=C(COC3=O)N(CCO)c3cc(OC)ccc32)c1 (stereo unspecified)"
  readingUnit: "%"
  growth: 59.2
- compound: "COc1ccc2c(c1)C(=O)c1c-2c(OCCN(C)C)nc2cc(OC)c(OC)cc12"
  readingUnit: "%"
  growth: 50.7

* * *

# Tested on: T-47D breast
# assayProtocol: NCI-60 one-dose screen, 48 h (100 = growth as untreated, 0 = no growth, -100 = all killed)
# cond: 10 µM
This is part of a sample that, as a whole, favours compounds with a hit. Of some 83,000 tested, about 20% had one in any assay.

- compound: "CSC1=NCCCC1"
  growth (%): 107
- compound: "Cc1ccc(N=Nc2c(N)nc(N)[nH]c2=O)cc1C"
  growth (%): 96
- compound: "CC/C(=C(/c1ccc(OCCN(C)C)cc1)c1ccc(OC(=O)CCC(=O)c2c(C)[nH]c(/C=C3\\N=C(c4ccc[nH]4)C=C3OC)c2C)cc1)c1ccccc1"
  growth (%): 22.7
- compound: "CC(C)=CCc1cc(O)cc2c1OC(C=C(C)C)C1=C2C(=O)C2=C(NCCS2(=O)=O)C1=O (stereo not drawn)"
  growth (%): -10
- compound: "CC(C)(Cl)CCC1=C(Cl)C(=O)c2ccccc2C1=O"
  growth (%): -38.7
- compound: "N#CCCN1C/C(=C/c2ccccc2)C(=O)/C(=C/c2ccccc2)C1"
  growth (%): 68
- compound: "O=C1N=NC2=C1c1c3ccccc3c(O)n1CC2"
  growth (%): 103
- compound: "Cc1ncc(-c2ccoc2)c(NC2CCCCCC2)n1"
  growth (%): 92
- compound: "O=c1cc(-c2ccccc2)[nH]n1-c1nc2ccccc2[nH]1"
  growth (%): 62
- compound: "COc1ccc2c(c1)O/C(=C\\c1ccc([N+](=O)[O-])s1)C2=O"
  growth (%): 16
- compound: "Nc1nc(-c2ccccc2Cl)cc(-c2ccc(Cl)cc2Cl)n1"
  growth (%): 63.7
- compound: "COC(=O)c1ccc(=O)oc1"
  growth (%): 96.3
- compound: "CCOC(=O)C(CSC(c1ccccc1)(c1ccccc1)c1ccccc1)NC(=O)C(CSC(c1ccccc1)(c1ccccc1)c1ccccc1)NC(c1ccccc1)(c1ccccc1)c1ccccc1 (stereo not drawn)"
  growth (%): 108
- compound: "N#Cc1c(C#N)c(SSc2c(C#N)c(C#N)c(N)n2-c2ccccc2)n(-c2ccccc2)c1N"
  growth (%): 96.5
- compound: "COc1ccc(-c2nn(-c3cccc(NC(=O)Nc4ccc(Cl)c(C(F)(F)F)c4)c3)cc2-c2ccncc2)cc1Cl"
  growth (%): -6.17
- compound: "c1ccc([C@H]2CN3CCSC3=N2)cc1"
  growth (%): 99.6
- compound: "CCN(CC)CCOc1nc2ccccc2c2c1-c1ccc(OC)cc1C2=O"
  growth (%): 47.1
- compound: "CN(C)CCN1C(=O)c2cccc3cc(N)cc(c23)C1=O"
  growth (%): 12.4
- compound: "COc1cc(CNCCCCCCN2C(=O)c3cccc4cccc(c34)C2=O)ccc1O"
  growth (%): 65.3
- compound: "COc1ccc(Cn2c(C(N)=O)cc3c2-c2nc(N)ncc2CCC3)cc1"
  growth (%): 104
- compound: "COc1ccc(/C=C2/CN(C(=O)c3ccc(C)cc3)C/C(=C\\c3ccc(OC)cc3)C2=O)cc1"
  growth (%): 69.3
- compound: "CSc1nn(-c2ccccc2)c2ncnc(Oc3ccccc3)c12"
  growth (%): 87.7
- compound: "C[N+](C)(C)c1ncnc2nc[nH]c12"
  growth (%): 91.7
- compound: "CC(=O)OCc1cc(-c2nc3ccccc3[nH]c2=O)nn1-c1ccc(Cl)cc1"
  growth (%): 92.7
- compound: "COc1ccc(-c2nc(-c3nc4ccc(Cl)cc4[nH]3)c3ccccn23)cc1"
  growth (%): 64.7
- compound: "Cn1c([N+](=O)[O-])cnc1/C=C1\\Oc2ccc(Cl)cc2C1=O"
  growth (%): 78.1
- compound: "O=C1c2ccc3c4c(ccc(c24)C(=O)N1CCNCc1ccccc1)C(=O)N(CCNCc1ccccc1)C3=O"
  growth (%): -27.2
- compound: "O=C1NC(=O)N(Cc2ccccc2)CC1Br (stereo not drawn)"
  growth (%): 57
- compound: "Cc1ccc(CC#N)cc1C"
  growth (%): 98.4
- compound: "COc1ccc2c(c1)O/C(=C\\c1ccc([N+](=O)[O-])o1)C2=O"
  growth (%): -0.109
- compound: "O=[N+]([O-])c1cccc(N=Cc2ccc3c(c2)OCO3)c1"
  growth (%): 103
- compound: "CCCCOC(=O)Oc1ccc(C(=O)Oc2ccc(OCC)cc2)cc1"
  growth (%): 111
- compound: "O=c1[nH]c2ccc(Cl)cc2c2ccccc12"
  growth (%): 10.4
- compound: "c1ccc(CO[C@H]2CO[C@H]3[C@@H]2OC[C@H]3OCc2ccccc2)cc1"
  growth (%): 93.7
- compound: "COc1ccc(N2C(=O)C3c4[nH]c5ccc(OCc6ccccc6)cc5c4C4CCC(C(C)C)CC4C3C2=O)cc1 (stereo not drawn)"
  growth (%): 104
- compound: "Oc1[nH]c2cc(Cl)ccc2c1/C=c1/ccc2c(c1)N=C(c1cc(F)cc(F)c1)N=2"
  growth (%): 30.9
- compound: "Nc1c(C(=O)Nc2cccc3ccccc23)sc2nc3c(cc12)C(=O)CCC3"
  growth (%): 47.5
- compound: "COc1ccc(-c2nn(-c3cccc(NC(=O)c4ccc(Cl)c(Cl)c4)c3)cc2-c2ccncc2)cc1Cl"
  growth (%): 62.8
- compound: "O=C1/C(=C\\c2ccccc2)CN(C(=O)c2ccccc2)C/C1=C\\c1ccccc1"
  growth (%): 48.7
- compound: "CCN(CC)CCCC(C)Nc1ccc2ccc(Cl)cc2n1 (stereo not drawn)"
  growth (%): 93.1
- compound: "Nc1ccc2c(c1)Cc1cc(N)c(Br)cc1-2"
  growth (%): 78.5
- compound: "Nc1nc(N=Nc2ccc(O)cc2)cc(=O)[nH]1"
  growth (%): 95.7
- compound: "COc1cc(Nc2ccnc(NCCNc3ccnc4cc(Cl)ccc34)n2)cc(OC)c1"
  growth (%): 15.5
